Tested on: indomethacin induced gastric damage in the rat
Assay: Anti-ulcer activity: inhibition of indomethacin induced gastric damage
Type: in vivo
Settings: po, 5 h, Table 2, 100 mg/kg orally, 30 min prior to and 2 h after indomethacin 15 mg/kg s.c.
Would you mind labelling by inhibition in vivo at 100 mg/kg? At or over 90% is YES, under is NO.

Substance smiles | Measured on | Class
CO/N=C(/c1ccc(F)cc1)c1cnccn1 | indomethacin induced gastric damage in the rat | YES
CON=C(c1cnccn1)c1ccco1 | indomethacin induced gastric damage in the rat | YES
CON=C(c1ccccc1)c1c(C)nc2ccccn12 | indomethacin induced gastric damage in the rat | NO
CO/N=C(\c1ccccc1)c1ncc[nH]1 | indomethacin induced gastric damage in the rat | YES

Does `CN(C)CCCON=C(c1ccccc1)c1nc2ccccc2s1` have a reported inhibition in vivo at 100 mg/kg of at least 90%?
NO

Also `CO/N=C(/c1ccccc1)c1nccs1` ?
NO

Also `CO/N=C(\c1ccccc1)c1cnc2ccccn12` ?
NO

Also `CON=C(c1ccccc1)c1nc2ccccc2[nH]1` ?
NO

Also `CO/N=C(\c1ccc(F)cc1)c1cnccn1` ?
YES

Also `CN(C)CCCON=C(c1ccccc1)c1ccc2ccccc2n1` ?
NO

Also `CN(C)CCCON=C(c1ccccc1)c1cnc2ccccn12` ?
NO
